Ref: patent US8546376B2

# Measured target: AKT2 (Homo sapiens, UniProt P31751)
# Sequence (P31751 whole entry): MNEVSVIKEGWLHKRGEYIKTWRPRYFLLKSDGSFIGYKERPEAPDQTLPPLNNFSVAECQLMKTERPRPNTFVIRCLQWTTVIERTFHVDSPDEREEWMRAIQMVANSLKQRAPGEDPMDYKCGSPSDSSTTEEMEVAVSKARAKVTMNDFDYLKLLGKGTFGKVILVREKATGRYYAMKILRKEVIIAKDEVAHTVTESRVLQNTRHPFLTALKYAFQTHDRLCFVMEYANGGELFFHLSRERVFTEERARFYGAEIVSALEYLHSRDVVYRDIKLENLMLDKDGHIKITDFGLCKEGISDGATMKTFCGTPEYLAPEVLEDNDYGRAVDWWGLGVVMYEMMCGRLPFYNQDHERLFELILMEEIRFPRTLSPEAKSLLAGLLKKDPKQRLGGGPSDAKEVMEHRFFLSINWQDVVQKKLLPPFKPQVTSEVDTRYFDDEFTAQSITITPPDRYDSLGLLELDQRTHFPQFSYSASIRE
# Test protocol: AKT Kinase Assay (IMAP fluorescent polarisation) vs AKT2
# Run parameters: activated AKT2, FAM Crosstide substrate
Readout name: IC50

Look over these answered cases.
NC1(c2ccc(-c3c(-c4ccccc4)oc4cc(F)c(F)cc4c3=O)cc2)CCC1 [Example 23]; 1000 to 10000 nM
N#CCOc1ccc2c(=O)c(-c3ccc(C4(N)CCC4)cc3)c(-c3ccccc3)oc2c1Br [Example 110]; 1000 to 10000 nM

Please turn your attention to the following entry.
Provide value of IC50 for this record tested with AKT2 (Homo sapiens, UniProt P31751): NC1(c2ccc(-c3c(-c4ccccc4)oc4c(ccc5nc(C(F)(F)F)[nH]c54)c3=O)cc2)CCC1 [Example 94]
1000 to 10000 nM

----------
# Measured target: AKT1 (Homo sapiens, UniProt P31749)
# Sequence (P31749 whole entry): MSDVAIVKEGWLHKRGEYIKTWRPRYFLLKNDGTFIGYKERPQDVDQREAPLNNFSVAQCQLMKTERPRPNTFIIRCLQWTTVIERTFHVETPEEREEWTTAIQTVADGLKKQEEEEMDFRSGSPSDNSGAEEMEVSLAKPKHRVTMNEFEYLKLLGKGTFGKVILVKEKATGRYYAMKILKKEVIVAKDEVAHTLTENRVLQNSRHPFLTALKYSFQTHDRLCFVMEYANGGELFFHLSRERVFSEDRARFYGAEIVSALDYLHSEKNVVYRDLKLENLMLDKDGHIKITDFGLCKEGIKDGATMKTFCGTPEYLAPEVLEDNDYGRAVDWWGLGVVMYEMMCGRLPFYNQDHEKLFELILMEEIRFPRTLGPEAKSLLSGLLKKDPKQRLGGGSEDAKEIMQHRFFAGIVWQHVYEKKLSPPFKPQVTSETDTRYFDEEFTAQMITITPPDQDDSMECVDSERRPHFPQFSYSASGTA
# Test protocol: AKT Kinase Assay (IMAP fluorescent polarisation) vs AKT1
# Run parameters: activated AKT1, FAM Crosstide substrate
Where a name gives a salt, the structure may show the parent alone.
# Lookup of reported IC50 keyed by entry

COc1cc2oc(-c3ccccc3)c(-c3ccc(C4(N)CCC4)cc3)c(=O)c2cc1C; 1 to 10 µM

Provide value of IC50 for this record tested with AKT1 (Homo sapiens, UniProt P31749): NC1(c2ccc(-c3c(-c4ccccc4)oc4c(C5CC5)nccc4c3=O)cc2)CCC1 [Example 126, hydrochloride]
≤ 1 µM

Provide value of IC50 for this record tested with AKT1 (Homo sapiens, UniProt P31749): Cc1c(-c2nccc3c(=O)c(-c4ccc(C5(N)CCC5)cc4)c(-c4ccccc4)oc23)cnn1C
≤ 1 µM

----------
# Lookup of reported pIC50 keyed by entry
# Measured target: AKT1 (Homo sapiens, UniProt P31749)
# Test protocol: AKT Kinase Assay (IMAP fluorescent polarisation) vs AKT1
# Run parameters: activated AKT1, FAM Crosstide substrate
pIC50: −log10 of the molar value. Counter-ions that a name gives are not always drawn.

Look over these answered cases.
COc1ccc2c(=O)c(-c3ccc(C4(N)CCC4)cc3)c(-c3ccccc3)oc2n1 [Example 35, hydrochloride]; 5.00 to 6.00
Cn1cc2c(ccc3c(=O)c(-c4ccc(C5(N)CCC5)cc4)c(-c4ccccc4)oc32)n1; ≥ 6.00
Nc1ccc2c(=O)c(-c3ccc(C4(N)CCC4)cc3)c(-c3ccccc3)oc2c1; 5.00 to 6.00
C#Cc1cccc2c(=O)c(-c3ccc(C4(N)CCC4)cc3)c(-c3ccccc3)oc12; ≥ 6.00
NC1(c2ccc(-c3c(-c4ccccc4)oc4c(ccc5[nH]c(=O)oc54)c3=O)cc2)CCC1; ≥ 6.00
CC(C)Cn1cc(-c2nccc3c(=O)c(-c4ccc(C5(N)CCC5)cc4)c(-c4ccccc4)oc23)cn1; ≥ 6.00

Query (compound): Cn1ncc2ccc3c(=O)c(-c4ccc(C5(N)CCC5)cc4)c(-c4ccccc4)oc3c21 ; field requested: pIC50
≥ 6.00

Query (compound): COc1cc2c(=O)c(-c3ccc(C4(N)CCC4)cc3)c(-c3ccccc3)oc2cc1C(N)=O ; field requested: pIC50
5.00 to 6.00

----------
# Lookup of reported pIC50 keyed by entry
# Measured target: AKT3 (Homo sapiens, UniProt Q9Y243)
# Sequence (Q9Y243 whole entry): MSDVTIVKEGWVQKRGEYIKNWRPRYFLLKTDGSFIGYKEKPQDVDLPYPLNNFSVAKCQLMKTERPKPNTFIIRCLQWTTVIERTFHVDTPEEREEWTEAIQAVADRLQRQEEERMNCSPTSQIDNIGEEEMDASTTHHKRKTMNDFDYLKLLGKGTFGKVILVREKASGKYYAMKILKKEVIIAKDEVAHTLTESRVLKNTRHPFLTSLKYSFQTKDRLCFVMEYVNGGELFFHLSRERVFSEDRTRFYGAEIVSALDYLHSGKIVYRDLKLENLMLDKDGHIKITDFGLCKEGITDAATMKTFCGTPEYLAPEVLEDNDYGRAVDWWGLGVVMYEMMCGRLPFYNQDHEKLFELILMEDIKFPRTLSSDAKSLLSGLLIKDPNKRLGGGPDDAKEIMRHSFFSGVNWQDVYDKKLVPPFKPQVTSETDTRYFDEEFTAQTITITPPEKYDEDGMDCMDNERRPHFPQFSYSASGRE
# Test protocol: AKT Kinase Assay (IMAP fluorescent polarisation) vs AKT3
# Run parameters: activated AKT3, FAM Crosstide substrate
pIC50: −log10 of the molar value. Counter-ions that a name gives are not always drawn.

Look over these answered cases.
Cc1c(-c2nccc3c(=O)c(-c4ccc(C5(N)CCC5)cc4)c(-c4ccccc4)oc23)cnn1C [Example 116]; 5.00 to 6.00
NC1(c2ccc(-c3c(-c4ccccc4)oc4c(Br)cccc4c3=O)cc2)CCC1 [Example 51]; ≥ 6.00
COc1ccc2c(=O)c(-c3ccc(C4(N)CCC4)cc3)c(-c3ccccc3)oc2c1C(N)=O [Example 50, hydrochloride]; 5.00 to 6.00

Query (molecule): COc1cc2c(=O)c(-c3ccc(C4(N)CCC4)cc3)c(-c3ccccc3)oc2cc1C#N [Example 30] ; field requested: pIC50
5.00 to 6.00

----------
# Measured target: AKT3 (Homo sapiens)
# Test protocol: AKT Kinase Assay (IMAP fluorescent polarisation) vs AKT3
# Run parameters: activated AKT3, FAM Crosstide substrate
pIC50: −log10 of the molar value.
Readout name: pIC50

Look over these answered cases.
NC1(c2ccc(-c3c(-c4ccccc4)oc4c(-c5c[nH]nc5C(F)(F)F)cccc4c3=O)cc2)CCC1; 5.00 to 6.00
NC1(c2ccc(-c3c(-c4ccccc4)oc4cccc(F)c4c3=O)cc2)CCC1; < 5.00
NC1(c2ccc(-c3c(-c4ccccc4)oc4nc(Cl)ccc4c3=O)cc2)CCC1; < 5.00

Query (compound): NC1(c2ccc(-c3c(-c4ccccc4)oc4c(ccc5nc(C(F)(F)F)[nH]c54)c3=O)cc2)CCC1 ; field requested: pIC50
< 5.00

----------
# Measured target: AKT3 (Homo sapiens, UniProt Q9Y243)
# Construct: purchased SignalChem
# Test protocol: AKT Kinase Assay (IMAP fluorescent polarisation) vs AKT3
# Format: biochemical
# Run parameters: activated AKT3, FAM Crosstide substrate
pIC50: −log10 of the molar value. Where a name gives a salt, the structure may show the parent alone.
Readout name: pIC50

Look over these answered cases.
COc1ccc2c(=O)c(-c3ccc(C4(N)CCC4)cc3)c(-c3ccccc3)oc2c1; < 5.00
NC1(c2ccc(-c3c(-c4ccccc4)oc4c(ccc5cnn(CCO)c54)c3=O)cc2)CCC1 [Example 85, hydrochloride]; 5.00 to 6.00
Cc1nc2ccc3c(=O)c(-c4ccc(C5(N)CCC5)cc4)c(-c4ccccc4)oc3c2[nH]1; 5.00 to 6.00
NC1(c2ccc(-c3c(-c4ccccc4)oc4c(ccc5c(Cl)n[nH]c54)c3=O)cc2)CCC1 [Example 99, hydrochloride]; 5.00 to 6.00
Cc1c(-c2cccc3c(=O)c(-c4ccc(C5(N)CCC5)cc4)c(-c4ccccc4)oc23)cnn1C [Example 75, hydrochloride]; 5.00 to 6.00
NC1(c2ccc(-c3c(-c4ccccc4)oc4c(C(=O)O)cccc4c3=O)cc2)CCC1; < 5.00

Please turn your attention to the following entry.
Query (molecule): CC(C)n1cc2ccc3c(=O)c(-c4ccc(C5(N)CCC5)cc4)c(-c4ccccc4)oc3c2n1 [Example 84, hydrochloride] ; field requested: pIC50
5.00 to 6.00

----------
# Lookup of reported pIC50 keyed by entry
# Measured target: AKT3 (Homo sapiens, UniProt Q9Y243)
# Test protocol: AKT Kinase Assay (IMAP fluorescent polarisation) vs AKT3
# Run parameters: activated AKT3, FAM Crosstide substrate
pIC50: −log10 of the molar value. Counter-ions that a name gives are not always drawn.

NC1(c2ccc(-c3c(-c4ccccc4)oc4c(ccc5nc(C(F)F)[nH]c54)c3=O)cc2)CCC1; 5.00 to 6.00
NC1(c2ccc(-c3c(-c4ccccc4)oc4c5c(ccc4c3=O)OCC(=O)N5)cc2)CCC1; 5.00 to 6.00
COc1ccc2c(=O)c(-c3ccc(C4(N)CCC4)cc3)c(-c3ccccc3)oc2c1C#N; 5.00 to 6.00
NC1(c2ccc(-c3c(-c4ccccc4)oc4c(ccc5cn[nH]c54)c3=O)cc2)CCC1; 5.00 to 6.00
COc1cc2c(=O)c(-c3ccc(C4(N)CCC4)cc3)c(-c3ccccc3)oc2cc1C; < 5.00

Query (compound): NC1(c2ccc(-c3c(-c4ccccc4)oc4ccccc4c3=S)cc2)CCC1 [Example 65, hydrochloride] ; field requested: pIC50
5.00 to 6.00

Query (compound): NC(=O)c1ccc2c(=O)c(-c3ccc(C4(N)CCC4)cc3)c(-c3ccccc3)oc2c1 ; field requested: pIC50
< 5.00

Query (compound): COc1cc2oc(-c3ccccc3)c(-c3ccc(C4(N)CCC4)cc3)c(=O)c2cc1C#N ; field requested: pIC50
< 5.00

----------
# Measured target: AKT2 (Homo sapiens, UniProt P31751)
# Test protocol: AKT Kinase Assay (IMAP fluorescent polarisation) vs AKT2
# Run parameters: activated AKT2, FAM Crosstide substrate
pIC50: −log10 of the molar value. Counter-ions that a name gives are not always drawn.
Readout name: pIC50

Look over these answered cases.
COc1cc2oc(-c3ccccc3)c(-c3ccc(C4(N)CCC4)cc3)c(=O)c2cc1C; 5.00 to 6.00
COc1cc2c(=O)c(-c3ccc(C4(N)CCC4)cc3)c(-c3ccccc3)oc2cc1C; 5.00 to 6.00
Cn1cnc2c3oc(-c4ccccc4)c(-c4ccc(C5(N)CCC5)cc4)c(=O)c3cc(Cl)c21 [Example 62, hydrochloride]; ≥ 6.00
Cc1nn(C)c(C)c1-c1nccc2c(=O)c(-c3ccc(C4(N)CCC4)cc3)c(-c3ccccc3)oc12; 5.00 to 6.00
COc1ccc2c(=O)c(-c3ccc(C4(N)CCC4)cc3)c(-c3ccccc3)oc2c1; 5.00 to 6.00
NC1(c2ccc(-c3c(-c4ccccc4)oc4c(ccc5nn[nH]c54)c3=O)cc2)CCC1; ≥ 6.00

Query (compound): COc1ccc2oc(-c3ccccc3)c(-c3ccc(C4(N)CCC4)cc3)c(=O)c2c1 ; field requested: pIC50
5.00 to 6.00

Query (compound): Nc1ccc2c(=O)c(-c3ccc(C4(N)CCC4)cc3)c(-c3ccccc3)oc2c1 ; field requested: pIC50
5.00 to 6.00
